Biological target: HLA-C*04:01
Assay: thermal melting temperature (Tm) of peptide-HLA complex; higher = more thermostable pHLA complex
Details: C1R-B*07:02
Listed below: thermal melting temperature values for each entry.
experimental_endpoint: thermal melting temperature (°C)

[[record]]
sequence_text = "IFDGNVAHI"
result_value = 59

[[record]]
sequence_text = "VFDPIGHF"
result_value = 58.8

[[record]]
sequence_text = "FFDPSLLHL"
result_value = 55.8

[[record]]
sequence_text = "LWDSAVSHF"
result_value = 55.6

[[record]]
sequence_text = "SFEEKPVYI"
result_value = 55.5

[[record]]
sequence_text = "LFDLGGQYL"
result_value = 44.5

[[record]]
sequence_text = "HYDEQQNFF"
result_value = 53.3

[[record]]
sequence_text = "FFDEVVKQM"
result_value = 60.5

[[record]]
sequence_text = "FFDEESYSL"
result_value = 43.7

[[record]]
sequence_text = "QFDNYGEEF"
result_value = 55.5

[[record]]
sequence_text = "NPDDVFREF"
result_value = 62.7

[[record]]
sequence_text = "AFDVHLNAF"
result_value = 55.9

[[record]]
sequence_text = "KFDPVGEIL"
result_value = 54.9

[[record]]
sequence_text = "LFDDIDHNM"
result_value = 53.7

[[record]]
sequence_text = "AFDLTEQRY"
result_value = 56.4

[[record]]
sequence_text = "ILDPHVVLL"
result_value = 57.6

[[record]]
sequence_text = "FFDTNTSVL"
result_value = 59.4

[[record]]
sequence_text = "SFDSTVRL"
result_value = 54.6

[[record]]
sequence_text = "TFDDIVHSF"
result_value = 55.3

[[record]]
sequence_text = "IFSEKPVFV"
result_value = 57

[[record]]
sequence_text = "FYDPDVGNF"
result_value = 51.2

[[record]]
sequence_text = "FYDVQFKEL"
result_value = 52.5

[[record]]
sequence_text = "MLDPLEVHL"
result_value = 52.5

[[record]]
sequence_text = "VFDKTLAEL"
result_value = 59.1

[[record]]
sequence_text = "VFPKEPVEL"
result_value = 52.2

[[record]]
sequence_text = "TYDLQESNV"
result_value = 55.5

